tested_on: T1, human LAG-3 overexpressed on cells (human, UniProt P18627 23-525)
T1 sequence (looked up): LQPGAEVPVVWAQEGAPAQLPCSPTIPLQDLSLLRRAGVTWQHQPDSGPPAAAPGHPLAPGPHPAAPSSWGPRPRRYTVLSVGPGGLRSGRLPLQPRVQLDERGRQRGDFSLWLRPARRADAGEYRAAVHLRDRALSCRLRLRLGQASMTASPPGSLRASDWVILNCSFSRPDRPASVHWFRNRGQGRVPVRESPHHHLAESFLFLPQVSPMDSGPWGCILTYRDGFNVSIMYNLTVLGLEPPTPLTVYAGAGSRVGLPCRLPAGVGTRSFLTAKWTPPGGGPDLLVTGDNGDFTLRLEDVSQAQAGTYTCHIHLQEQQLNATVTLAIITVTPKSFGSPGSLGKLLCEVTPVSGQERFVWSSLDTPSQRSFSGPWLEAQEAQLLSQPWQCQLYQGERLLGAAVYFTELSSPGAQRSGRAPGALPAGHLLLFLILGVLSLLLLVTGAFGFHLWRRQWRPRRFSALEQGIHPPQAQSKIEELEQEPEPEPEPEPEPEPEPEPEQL
protocol_description: cell-based or functional assay
Below: a set of entries, each annotated with reported EC50 (µg/ml), LAG3/MHC class II Blockade bioassay.
readout: EC50 (µg/ml), LAG3/MHC class II Blockade bioassay (µg/mL)

>>> observed_measurement("LAG3-1E09_AM_2H01 (antibody, V domains shown, Tested as full IgG) VH: EVQLVESGGDLVQPGGSLRLSCAASGFTFSDHYMNWVRQAPGKGLEWVAYIDTSATYIYYADSVKGRFTISRDNAKNSLYLQMNSLRAEDTAVYYCARDNWGSLDYWGQGTLVTVSS VL: DIQMTQSPSSLSASVGDRVTITCQASQDISNYLNWYQQKPGKAPNLLIYDASTLETGVPSRFSGSGYGTDFTLTISGLQPDDFALYYCQQSYSTPYSFGPGTKVEIK")
0.0822
>>> observed_measurement("LAG3-1E09_FR_1E05 (antibody, V domains shown, Tested as full IgG) VH: EVQLVESGGGLVQPGGSLRLSCAASGFSFSDHYMNWVRQAPGKGLEWVAYIDTSATYIYYADSVKGRFTISRDNAKNSLYLQMNSLRAEDTAVYYCARDNWGSLDYWGQGTLVTVSS VL: DIQMTQSPSSLSASVGDRVTITCRASQSISSWLAWYQHKPGKAPKLLIYDASNLETGAPSRFSGSGSGTDFTFTIYSLQPEDVATYYCQQYDTVPPTFGPGTKVDIK")
0.0938
